Tested on: UO-31
Assay: NCI 60 antitumor screening (single dose / five doses)
Type: cell-based
Conditions: Homo sapiens, UO-31, read-out: Growth inhibition percentage (GI %)
metric_name: inhibition at 10 µM (%)
Give just the number in %; leave the unit off.

Exam item: Field request: inhibition at 10 µM | item: "O=[N+]([O-])c1cc(/C=N/Nc2nc(N/N=C/c3ccc(Cl)c([N+](=O)[O-])c3)nc(N3CCCCC3)n2)ccc1Cl"
Marked response: 52.5

Exam item: Field request: inhibition at 10 µM | item: "O=[N+]([O-])c1cccc(/C=N/Nc2nc(N/N=C/c3cccc([N+](=O)[O-])c3)nc(N3CCOCC3)n2)c1"
Marked response: 50.7

Exam item: Field request: inhibition at 10 µM | item: "O=[N+]([O-])c1cc(/C=N/Nc2nc(N/N=C/c3ccc(Cl)c([N+](=O)[O-])c3)nc(N3CCOCC3)n2)ccc1Cl"
Marked response: 22.3

Exam item: Field request: inhibition at 10 µM | item: "O=[N+]([O-])c1cccc(/C=N/Nc2nc(N/N=C/c3cccc([N+](=O)[O-])c3)nc(N3CCCCC3)n2)c1"
Marked response: 48.4
